Measured inhibition at 0.1 µM accompanies every entry in the list below.
biological target: prolyl endopeptidase (Rattus norvegicus); construct: prolyl endopeptidase extracted from rat brain; from tissue; host or cells: rat brain; assay: Prolyl endopeptidase-inhibitory activity; format: biochemical; conditions: read-out: inhibition of prolyl endopeptidase
Sequence (O70196 whole entry): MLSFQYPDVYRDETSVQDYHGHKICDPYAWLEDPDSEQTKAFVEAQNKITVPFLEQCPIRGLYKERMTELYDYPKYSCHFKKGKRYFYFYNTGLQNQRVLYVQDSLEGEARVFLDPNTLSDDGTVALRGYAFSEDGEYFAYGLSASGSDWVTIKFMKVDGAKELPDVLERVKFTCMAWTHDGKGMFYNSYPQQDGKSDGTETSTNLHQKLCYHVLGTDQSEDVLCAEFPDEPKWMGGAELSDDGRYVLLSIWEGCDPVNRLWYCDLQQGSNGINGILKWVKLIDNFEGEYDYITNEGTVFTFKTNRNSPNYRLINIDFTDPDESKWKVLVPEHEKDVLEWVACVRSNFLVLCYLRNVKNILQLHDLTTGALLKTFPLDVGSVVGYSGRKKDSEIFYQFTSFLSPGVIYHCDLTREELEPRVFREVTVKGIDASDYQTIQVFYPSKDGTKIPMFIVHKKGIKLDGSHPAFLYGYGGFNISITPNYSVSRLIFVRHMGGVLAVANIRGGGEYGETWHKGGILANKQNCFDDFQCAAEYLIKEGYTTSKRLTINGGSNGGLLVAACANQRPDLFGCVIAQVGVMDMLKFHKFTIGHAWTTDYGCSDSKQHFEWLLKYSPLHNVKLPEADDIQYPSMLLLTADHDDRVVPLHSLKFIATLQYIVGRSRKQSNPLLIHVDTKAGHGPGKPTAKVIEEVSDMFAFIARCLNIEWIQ

// worked examples, inhibition at 0.1 µM included
[[record]]
smiles_code = "COc1ccc(CNC(=O)N2CCC[C@H]2C(=O)N2CCC[C@H]2C(=O)CO)cc1"
observed = "100%"

[[record]]
smiles_code = "CC(=O)OCC(=O)[C@@H]1CCCN1C(=O)[C@@H]1CCCN1C(=O)NCc1ccccc1"
observed = "100%"

[[record]]
smiles_code = "Cc1ccc(CNC(=O)N2CCC[C@H]2C(=O)N2CCC[C@H]2C(=O)COC(=O)c2ccccc2)cc1"
observed = "100%"

[[record]]
smiles_code = "CC(C)(C)C(=O)OCC(=O)[C@@H]1CCCN1C(=O)[C@@H]1CCCN1C(=O)NCc1ccccc1"
observed = "97%"

[[record]]
smiles_code = "O=C(OCC(=O)[C@@H]1CCCN1C(=O)[C@@H]1CCCN1C(=O)NCc1ccccc1)c1ccccc1"
observed = "98%"


Now turn to the next compound.
Provide one value: measured inhibition at 0.1 µM of O=C(CO)[C@@H]1CCCN1C(=O)[C@@H]1CCCN1C(=O)NCCc1ccccc1
100%
